protocol-description: Mouse brain uptake assay (MBUA), 3 mg/kg IV, 0-1 h, 3 time points
Assay type: in vivo, male CD1 mice
measurement-parameters: male, CD1; unbound brain/unbound plasma, mouse, 3 mg/kg IV, 0-1 h; read-out: Kp, uu
Experimental: Example 38: Pharmacokinetics and Brain Penetration Experiment to Determine Brain and Plasma Concentrations of Compounds after IV Administration to Male CD1 Mice The study design (9 animals) consisted of administrating the drug (IV: 3 mg/kg (5 mL/kg) via tail vein injection) and collecting samples at terminal bleeding for plasma and brain at 0.083, 0.5 and 1 h. The IV dosing solution was prepared in 50 mM citrate buffer (pH 4.0) at 0.6 mg/mL. […]
reported-metric: Kp uu

These solved cases illustrate the format of a correct answer.
>>> reported_result("Cc1cccnc1[C@@H]1CCC[C@H](c2nc3cccc(N4CCN(C)C5(CC5)C4)c3[nH]2)N1")
0.54
>>> reported_result("CN1CCN(c2cccc3nc([C@H]4CCC[C@@H](c5ncccc5Cl)N4C)[nH]c23)CC1")
0.73

I. Cc1cccnc1[C@@H]1CCC[C@H](c2nc3cccc(N4CCN(C)CC4)c3[nH]2)N1
II. CN1CCN(c2cccc3nc([C@H]4CCC[C@@H](c5ncccc5Cl)N4)[nH]c23)CC1 (racemic)
III. Cc1cccnc1[C@@H]1CCC[C@H](c2nc3ccccc3n2CC2CCN(C)CC2)N1C
IV. COc1cccnc1[C@@H]1CCC[C@H](c2nc3cccc(N4CCN(C)CC4)c3[nH]2)N1
Put the items in order so that reported Kp uu rises from first to last. Provide the labels, sequenced as the question asks. III, I, IV, II
(III: 0.02, I: 0.04, IV: 0.07, II: 0.33)
